Cited source for all entries: paper PMC10397247

Biological target: T1, 4H2389-AA
T1 chain: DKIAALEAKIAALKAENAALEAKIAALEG
Test: two-hybrid library CCmax;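 also: natural log of median RNA to DNA barcode read ratio; higher means stronger binding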
Details: mean of both orientations

{"columns": ["binder", "interaction score"],
 "data": [
  ["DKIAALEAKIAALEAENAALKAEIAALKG [4H2330-AA]", -0.00244],
  ["DENAALKAKIAALKAENAALEAKIAALEG [4H1877-AA]", -1.07],
  ["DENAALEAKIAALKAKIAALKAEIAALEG [4H1385-AA]", -1.15],
  ["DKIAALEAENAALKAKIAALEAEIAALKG [4H2274-AA]", -0.987],
  ["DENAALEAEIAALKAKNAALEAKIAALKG [4H1142-AA]", -0.327],
  ["DEIAALEAENAALEAKIAALKAKIAALKG [4H174-AA]", -0.219],
  ["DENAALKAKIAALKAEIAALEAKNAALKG [4H1864-AA]", 0.806],
  ["DKIAALEAEIAALKAKNAALEAEIAALKG [4H2162-AA]", -0.128],
  ["DENAALKAEIAALEAKNAALKAKIAALEG [4H1597-AA]", 2.15],
  ["DENAALKAEIAALKAENAALKAEIAALKG [4H1626-AA]", -1.4],
  ["DENAALEAKNAALKAEIAALEAKIAALKG [4H1478-AA]", 0.0289],
  ["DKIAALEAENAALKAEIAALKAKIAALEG [4H2253-AA]", -1.29]
]}
